system.under.test: UniProt Q9NYK1
Sequence (Q9NYK1 27-1049): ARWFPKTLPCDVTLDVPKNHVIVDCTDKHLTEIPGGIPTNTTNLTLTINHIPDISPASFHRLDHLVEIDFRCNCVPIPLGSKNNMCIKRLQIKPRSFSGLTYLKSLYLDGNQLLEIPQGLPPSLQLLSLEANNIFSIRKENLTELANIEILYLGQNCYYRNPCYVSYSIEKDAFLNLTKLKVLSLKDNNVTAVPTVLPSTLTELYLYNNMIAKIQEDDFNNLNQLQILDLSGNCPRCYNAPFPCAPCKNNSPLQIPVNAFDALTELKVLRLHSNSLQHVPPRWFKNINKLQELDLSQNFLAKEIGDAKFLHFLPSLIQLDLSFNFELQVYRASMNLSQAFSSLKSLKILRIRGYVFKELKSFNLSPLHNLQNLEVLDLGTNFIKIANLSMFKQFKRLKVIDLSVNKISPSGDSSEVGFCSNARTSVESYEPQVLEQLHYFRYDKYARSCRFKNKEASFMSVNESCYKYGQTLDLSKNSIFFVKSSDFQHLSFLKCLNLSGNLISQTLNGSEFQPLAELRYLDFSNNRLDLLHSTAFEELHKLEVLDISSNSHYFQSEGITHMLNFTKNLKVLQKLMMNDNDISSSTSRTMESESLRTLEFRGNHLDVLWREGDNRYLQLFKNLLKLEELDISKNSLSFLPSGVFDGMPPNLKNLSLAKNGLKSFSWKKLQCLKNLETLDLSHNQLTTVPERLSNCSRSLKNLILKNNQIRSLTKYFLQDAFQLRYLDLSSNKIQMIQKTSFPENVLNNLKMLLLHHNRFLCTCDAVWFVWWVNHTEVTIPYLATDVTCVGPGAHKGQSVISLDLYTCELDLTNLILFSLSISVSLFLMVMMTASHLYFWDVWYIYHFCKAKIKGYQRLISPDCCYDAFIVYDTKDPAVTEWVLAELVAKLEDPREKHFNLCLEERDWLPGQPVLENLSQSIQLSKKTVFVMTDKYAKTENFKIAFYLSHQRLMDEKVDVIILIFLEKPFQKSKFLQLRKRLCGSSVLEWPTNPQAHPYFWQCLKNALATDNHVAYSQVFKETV
method.summary: TLR7 inhibition reporter assay (HEK-Blue cells, SEAP reporter, gardiquimod stimulation)
condition.context: HEK-Blue cells overexpressing human TLR7, SEAP reporter, gardiquimod 7.5 μM
// reported log10(IC50) per item
Friendly reminder: values = log10 of IC50, unit nM.

Query block: # lookup: log10(IC50) of `COc1cc(-c2[nH]nc(-c3ccc(C4CCN(CC(C)(C)O)CC4)cn3)c2C(C)C)cn2ncnc12`
Result block: 2.01

Query block: # lookup: log10(IC50) of `Cc1c(-c2[nH]nc(C(=O)NC3CCN(C(C)C)CC3)c2C(C)C)cn2ncnc2c1C`
Result block: 0.59

Query block: # lookup: log10(IC50) of Cc1cc(-c2[nH]nc(C(=O)NC3CCN(C(C)C(C)C)CC3)c2C(C)C)cn2ncnc12 (stereo not drawn)
Result block: 0.76

Query block: # lookup: log10(IC50) of CNC1CCC(NC(=O)c2n[nH]c(-c3cc(C)c4ncnn4c3)c2C(C)C)CC1 (stereo not drawn) [Example 130]
Result block: -0.35

Query block: # lookup: log10(IC50) of `Cc1cc(-c2[nH]nc(C(=O)NC3CCN(C4COC4)CC3)c2CC(F)(F)F)cn2ncnc12`
Result block: -0.04

Query block: # lookup: log10(IC50) of `Cc1cc(-c2[nH]nc(C(=O)N[C@@H]3CCCN(C)C3)c2C(C)C)cn2ncnc12`
Result block: -0.21

Query block: # lookup: log10(IC50) of Cc1cc(-c2[nH]nc(C3CCC(NC4CCN(C(C)C)CC4)CC3)c2C(C)C)cn2ncnc12 (single isomer, unassigned) [Example 289]
Result block: 0.72

Query block: # lookup: log10(IC50) of `Cc1cc(-c2[nH]nc(CNC3CCNCC3)c2C(C)C)cn2ncnc12`
Result block: 1.02

Query block: # lookup: log10(IC50) of `Cc1cc(-c2[nH]nc(-c3cn4c(n3)CNCC4)c2C(C)C)cn2ncnc12`
Result block: 2.80

Query block: # lookup: log10(IC50) of `Cc1cc(-c2[nH]nc(C(=O)N[C@H]3CC[C@H](N(C)C)CC3)c2C(C)C)cn2ncnc12`
Result block: 0.67

Query block: # lookup: log10(IC50) of `CCN1CCC(c2ccc(-c3n[nH]c(-c4cc(OC)c5ncnn5c4)c3C(C)C)cc2)CC1`
Result block: 0.72

Query block: # lookup: log10(IC50) of `Cc1cc(-c2[nH]nc(C(=O)N[C@H]3CC[C@H](N)CC3)c2C(C)C)cn2ncnc12`
Result block: -0.24

---

// reported IC50 per item
system.under.test: human TLR9 (Homo sapiens, UniProt Q9NR96)
Sequence (Q9NR96 26-1032): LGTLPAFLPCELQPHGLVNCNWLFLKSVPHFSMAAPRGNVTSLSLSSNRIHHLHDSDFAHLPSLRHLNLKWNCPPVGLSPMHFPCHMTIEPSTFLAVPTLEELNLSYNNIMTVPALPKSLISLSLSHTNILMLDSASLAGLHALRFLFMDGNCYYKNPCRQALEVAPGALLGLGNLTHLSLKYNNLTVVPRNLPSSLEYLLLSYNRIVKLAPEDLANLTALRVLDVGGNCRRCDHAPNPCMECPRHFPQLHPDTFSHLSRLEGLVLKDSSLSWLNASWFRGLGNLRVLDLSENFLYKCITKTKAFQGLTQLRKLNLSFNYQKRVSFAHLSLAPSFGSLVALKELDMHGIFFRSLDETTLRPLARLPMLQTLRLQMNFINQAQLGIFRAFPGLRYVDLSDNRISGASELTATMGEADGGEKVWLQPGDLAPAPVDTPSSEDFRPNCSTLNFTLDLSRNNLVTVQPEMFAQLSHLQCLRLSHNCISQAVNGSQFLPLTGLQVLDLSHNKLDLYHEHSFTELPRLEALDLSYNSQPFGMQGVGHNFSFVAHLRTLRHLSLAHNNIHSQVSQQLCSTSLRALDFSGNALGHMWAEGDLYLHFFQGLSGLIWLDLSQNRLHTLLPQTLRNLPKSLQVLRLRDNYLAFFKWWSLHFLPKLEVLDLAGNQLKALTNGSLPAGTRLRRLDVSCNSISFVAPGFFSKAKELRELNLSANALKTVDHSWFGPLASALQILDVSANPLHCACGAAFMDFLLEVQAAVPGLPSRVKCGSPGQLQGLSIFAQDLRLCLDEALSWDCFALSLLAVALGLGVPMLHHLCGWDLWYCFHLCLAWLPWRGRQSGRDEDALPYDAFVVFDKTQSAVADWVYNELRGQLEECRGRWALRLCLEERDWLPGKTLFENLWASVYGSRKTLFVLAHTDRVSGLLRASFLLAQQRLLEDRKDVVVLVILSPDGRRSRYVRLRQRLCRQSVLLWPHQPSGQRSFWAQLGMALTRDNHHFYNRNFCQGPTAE
method.summary: TLR9 inhibition reporter assay (HEK-Blue cells, SEAP reporter, ODN2006 stimulation)
condition.context: HEK-Blue cells overexpressing human TLR9, SEAP reporter, ODN2006 5 nM

Worked examples follow.
{"compound": "Cc1cc(-c2[nH]nc(C3CCC(N(C)C(=O)C4CN(C(C)C)C4)CC3)c2C(C)C)cn2ncnc12 (single isomer, unassigned) [Example 304]", "IC50": "35.6 µM"}
{"compound": "Cc1cc(-c2[nH]nc(-c3cnc(N)nc3)c2C(C)C)cn2ncnc12", "IC50": "8.86 µM"}

Please examine the following record next.
Query block: Checklist item: IC50 tested on human TLR9 (Homo sapiens, UniProt Q9NR96), entry `COc1cc(-c2[nH]nc(-c3ccc(C4CCN(CC#N)CC4)cn3)c2C(C)C)cn2ncnc12` , value?
Result block: > 50 µM
